system.tested: human toll like receptor 7 (hTLR7) (Homo sapiens)
Sequence (Q9NYK1 27-1049): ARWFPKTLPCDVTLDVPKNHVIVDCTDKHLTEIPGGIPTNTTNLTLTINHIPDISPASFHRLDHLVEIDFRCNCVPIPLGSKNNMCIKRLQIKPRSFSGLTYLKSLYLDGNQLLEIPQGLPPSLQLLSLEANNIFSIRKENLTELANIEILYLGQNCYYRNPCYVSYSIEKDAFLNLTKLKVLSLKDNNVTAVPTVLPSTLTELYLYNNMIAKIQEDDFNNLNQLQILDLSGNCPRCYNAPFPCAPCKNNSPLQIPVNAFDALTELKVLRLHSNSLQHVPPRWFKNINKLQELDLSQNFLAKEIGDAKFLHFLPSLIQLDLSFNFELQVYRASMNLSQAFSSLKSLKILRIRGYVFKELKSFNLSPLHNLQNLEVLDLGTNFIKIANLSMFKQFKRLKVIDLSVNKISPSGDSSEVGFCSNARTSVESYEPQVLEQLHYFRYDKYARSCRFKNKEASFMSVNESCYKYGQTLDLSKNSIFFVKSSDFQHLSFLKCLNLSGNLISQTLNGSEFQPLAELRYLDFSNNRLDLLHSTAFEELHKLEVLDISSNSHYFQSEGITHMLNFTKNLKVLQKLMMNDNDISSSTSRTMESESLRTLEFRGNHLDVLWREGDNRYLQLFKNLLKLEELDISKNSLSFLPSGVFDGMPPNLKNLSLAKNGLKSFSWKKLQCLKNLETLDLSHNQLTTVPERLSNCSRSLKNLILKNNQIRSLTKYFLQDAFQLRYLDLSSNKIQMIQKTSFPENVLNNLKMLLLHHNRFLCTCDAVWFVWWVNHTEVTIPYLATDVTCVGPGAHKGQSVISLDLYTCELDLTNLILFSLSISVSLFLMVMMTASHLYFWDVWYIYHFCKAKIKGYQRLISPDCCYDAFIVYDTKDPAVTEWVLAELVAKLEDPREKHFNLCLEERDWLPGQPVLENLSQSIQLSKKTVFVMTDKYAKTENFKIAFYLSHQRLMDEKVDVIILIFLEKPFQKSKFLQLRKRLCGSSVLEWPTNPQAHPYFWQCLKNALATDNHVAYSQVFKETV
method.description: hTLR7 in-vitro functional assay (HEK-Blue hTLR7 SEAP reporter)
details: HEK-Blue hTLR7 cells, overnight incubation
measurement.name: EC50

As a guide, the following entries are already answered.
structure.notation | result
CCCCc1nc2c(N)nc3cc(CCCN4CCN(CCCOCCOCCOCCOCCOCCOCCOCCOCCNC(=O)O[C@H]5CC[C@@]6(C)C(=CC[C@H]7[C@@H]8CC[C@H]([C@H](C)CCCC(C)C)[C@@]8(C)CC[C@@H]76)C5)CC4)ccc3c2n1CC(C)(CO)CO | 1680 nM
CCOCc1nc2c(N)nc3cc(CCCN4CCN(C(=O)CCOCCOCCOCCOCCOCCOCCOCCOCCOCCOCCOCCOCCNC(=O)CCOCCOCCOCCOCCNC(=O)O[C@H]5CC[C@@]6(C)C(=CC[C@H]7[C@@H]8CC[C@H]([C@H](C)CCCC(C)C)[C@@]8(C)CC[C@@H]76)C5)CC4)ccc3c2n1CC(C)(CO)CO | 223 nM
CCCCc1nc2c(N)nc3cc(CCCN4CCN(CCCOCCNC(=O)O[C@H]5CC[C@@]6(C)C(=CC[C@H]7[C@@H]8CC[C@H]([C@H](C)CCCC(C)C)[C@@]8(C)CC[C@@H]76)C5)CC4)ccc3c2n1CC(C)(CO)CO | 186 nM

Okay, now this compound:
Query: Item `CCCCc1nc2c(N)nc3cc(CCCN4CCN(C(=O)CCOCCOCCOCCOCCOCCOCCOCCOCCNC(=O)O[C@H]5CC[C@@]6(C)C(=CC[C@H]7[C@@H]8CC[C@H]([C@H](C)CCCC(C)C)[C@@]8(C)CC[C@@H]76)C5)CC4)ccc3c2n1CC(C)(CO)CO` has what recorded EC50?
Response: 362 nM

Provenance of the data: patent US20250135006A1
